List of Ratio IC50 values.
assay: Selectivity index, ratio of IC50 for inhibition of electric eel […] iodide as substrate to IC50 for inhibition of equine serum BuChE using butyrylthiocholine iodide as substrate
No unit in the answer, please; the number alone is enough.

Record excerpt, results attached:
Clc1ccc(C(Cn2ccnc2)OCc2ccc3ccccc3c2)c(Cl)c1 (centres undefined) : 47.8
Clc1ccc(C(Cn2ccnc2)OCc2nc3ccccc3s2)c(Cl)c1 (centres undefined) : 3.4

Query Clc1ccc(C(Cn2ccnc2)OCc2ccsc2)c(Cl)c1 (centres undefined) yields Ratio IC50 of 0.6

---

# pIC50 per entry for Indoleamine 2,3-dioxygenase 1 (Homo sapiens)
On this scale, pIC50 is minus log10 of a concentration expressed in M (mol/L).

Clc1ccc(C(Cn2ccnc2)OCc2cccc3ccccc23)c(Cl)c1 (stereo not drawn) : 4.31
Clc1ccc(C(Cn2ccnc2)OCc2nc3ccccc3o2)c(Cl)c1 (stereo not drawn) : 3.87
Fc1ccc(C(Cn2ccnc2)OCc2nc3ccccc3s2)cc1 (stereo not drawn) : 4.13

pIC50 on Indoleamine 2,3-dioxygenase 1 (Homo sapiens) for Clc1ccc(C(Cn2ccnc2)OCc2nc3ccccc3s2)c(Cl)c1 (stereo not drawn) is 5.17

pIC50 on Indoleamine 2,3-dioxygenase 1 (Homo sapiens) for Clc1ccc(C(Cn2ccnc2)OCc2ccc3ccccc3c2)c(Cl)c1 (stereo not drawn) is 4.65

pIC50 on Indoleamine 2,3-dioxygenase 1 (Homo sapiens) for Clc1ccc(C(Cn2ccnc2)OCc2csc3c(Cl)cccc23)c(Cl)c1 (stereo not drawn) is 5.42

pIC50 on Indoleamine 2,3-dioxygenase 1 (Homo sapiens) for Clc1ccc(C(Cn2ccnc2)OCc2ccsc2)c(Cl)c1 (stereo not drawn) is 4.20

pIC50 on Indoleamine 2,3-dioxygenase 1 (Homo sapiens) for Clc1ccc(C(Cn2ccnc2)OCc2cc3ccccc3s2)c(Cl)c1 (stereo not drawn) is 4.75

---

assay: Cytotoxicity against human SH-SY5Y cells assessed as reduction in cell viability after 48 hrs by MTT assay; assay type: cell-based; conditions: read-out: LD50
ENDPOINT NAME: CC50 at 48 h (µM)
API: value field is a number in µM; no unit string.

Clc1ccc(C(Cn2ccnc2)OCc2ccc3ccccc3c2)c(Cl)c1 (configuration not stated) : 9.8

Attention now shifts to the item below.
Query Clc1ccc(C(Cn2ccnc2)OCc2nc3ccccc3s2)c(Cl)c1 (configuration not stated) yields CC50 at 48 h of 11.8

---

target: Acetylcholinesterase (Electrophorus electricus) (UniProt O42275); assay: Inhibition of electric eel […] iodide as substrate at 50 uM preincubated for 5 mins followed by substrate addition and measured after 2 mins by Ellman's method relative to control; details: time 7.0 min
Sequence (O42275 24-633 limits assumed): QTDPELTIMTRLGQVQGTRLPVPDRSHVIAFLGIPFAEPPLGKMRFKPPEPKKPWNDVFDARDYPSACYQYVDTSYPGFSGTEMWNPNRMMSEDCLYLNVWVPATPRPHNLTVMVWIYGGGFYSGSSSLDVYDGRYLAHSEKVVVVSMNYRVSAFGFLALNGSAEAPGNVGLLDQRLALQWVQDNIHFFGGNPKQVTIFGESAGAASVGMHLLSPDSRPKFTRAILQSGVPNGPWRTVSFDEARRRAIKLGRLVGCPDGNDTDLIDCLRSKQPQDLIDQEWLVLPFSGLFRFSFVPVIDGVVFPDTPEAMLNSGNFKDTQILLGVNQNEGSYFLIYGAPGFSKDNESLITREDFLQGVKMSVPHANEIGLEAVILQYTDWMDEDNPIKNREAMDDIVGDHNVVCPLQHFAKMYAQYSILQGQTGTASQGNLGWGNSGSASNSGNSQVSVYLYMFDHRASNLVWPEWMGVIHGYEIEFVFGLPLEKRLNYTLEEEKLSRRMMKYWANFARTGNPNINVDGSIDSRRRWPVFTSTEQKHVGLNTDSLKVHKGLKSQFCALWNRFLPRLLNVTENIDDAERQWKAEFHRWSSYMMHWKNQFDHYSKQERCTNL
ENDPOINT NAME: inhibition (%)
API: value field is a number in %; no unit string.

Record excerpt, results attached:
Clc1ccc(C(Cn2ccnc2)OCc2nc3ccccc3s2)cc1 (stereo unspecified) : 17.8
Fc1ccc(C(Cn2ccnc2)OCc2nc3ccccc3s2)c(F)c1 (stereo unspecified) : 12.4
Clc1cccc(C(Cn2ccnc2)OCc2nc3ccccc3s2)c1 (stereo unspecified) : 19.9
Clc1ccc(C(Cn2ccnc2)OCc2nc3ccccc3s2)cc1Cl (stereo unspecified) : 5
Fc1ccc(C(Cn2ccnc2)OCc2nc3ccccc3s2)cc1F (stereo unspecified) : 7.2

Attention now shifts to the item below.
inhibition on Acetylcholinesterase (Electrophorus electricus) (UniProt O42275) for Fc1ccc(C(Cn2ccnc2)OCc2nc3ccccc3s2)cc1 (stereo unspecified) is 11.4

---

# pIC50 per entry for Indoleamine 2,3-dioxygenase 1 (Homo sapiens, UniProt P14902)
On this scale, pIC50 is minus log10 of a concentration expressed in M (mol/L).

Fc1cc(C(Cn2ccnc2)OCc2nc3ccccc3s2)ccc1Cl (stereo unspecified) : 4.24
Clc1ccc(C(Cn2ccnc2)OCc2nc3ccccc3s2)cc1 (stereo unspecified) : 4.06
Clc1ccc(C(Cn2ccnc2)OCc2nc3ccccc3s2)cc1Cl (stereo unspecified) : 5.52
Clc1ccccc1C(Cn1ccnc1)OCc1nc2ccccc2s1 (stereo unspecified) : 4.22
Clc1ccc(COC(Cn2ccnc2)c2ccc(Cl)cc2Cl)c(Cl)c1 (stereo unspecified) : 5.54
Clc1cccc(C(Cn2ccnc2)OCc2nc3ccccc3s2)c1 (stereo unspecified) : 4.60
Fc1ccc(C(Cn2ccnc2)OCc2nc3ccccc3s2)c(F)c1 (stereo unspecified) : 3.88
Brc1ccc(C(Cn2ccnc2)OCc2nc3ccccc3s2)cc1 (stereo unspecified) : 4.31

pIC50 on Indoleamine 2,3-dioxygenase 1 (Homo sapiens, UniProt P14902) for Fc1ccc(C(Cn2ccnc2)OCc2nc3ccccc3s2)cc1F (stereo unspecified) is 4.45

pIC50 on Indoleamine 2,3-dioxygenase 1 (Homo sapiens, UniProt P14902) for Clc1ccc(C(Cn2ccnc2)OCc2cccnc2)c(Cl)c1 (stereo unspecified) is 4.02

pIC50 on Indoleamine 2,3-dioxygenase 1 (Homo sapiens, UniProt P14902) for Brc1cccc(C(Cn2ccnc2)OCc2nc3ccccc3s2)c1 (stereo unspecified) is 5.43

---

biological target: Cholinesterase (Equus caballus); assay: Inhibition of equine serum BuChE using butyrylthiocholine iodide as substrate preincubated for 5 mins followed by substrate addition and measured after 2 mins by Ellman's method
Sequence (P81908 whole entry): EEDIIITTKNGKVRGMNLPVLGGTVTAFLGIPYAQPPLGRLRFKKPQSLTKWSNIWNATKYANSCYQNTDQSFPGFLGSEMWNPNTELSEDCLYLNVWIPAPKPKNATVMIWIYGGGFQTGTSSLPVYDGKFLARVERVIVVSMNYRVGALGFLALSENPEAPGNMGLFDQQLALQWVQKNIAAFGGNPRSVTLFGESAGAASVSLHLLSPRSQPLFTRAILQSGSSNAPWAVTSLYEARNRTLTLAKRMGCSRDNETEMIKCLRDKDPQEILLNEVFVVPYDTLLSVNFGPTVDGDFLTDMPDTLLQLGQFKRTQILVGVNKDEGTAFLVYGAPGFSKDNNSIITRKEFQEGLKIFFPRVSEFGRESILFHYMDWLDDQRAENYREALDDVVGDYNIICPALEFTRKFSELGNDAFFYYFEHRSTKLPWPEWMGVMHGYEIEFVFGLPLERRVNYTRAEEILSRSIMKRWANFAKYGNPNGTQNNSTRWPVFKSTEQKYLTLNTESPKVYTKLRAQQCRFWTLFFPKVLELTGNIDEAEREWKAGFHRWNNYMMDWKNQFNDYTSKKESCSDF
Rule: IC50 below 6 µM gives met, anything at or above gives not met.

Clc1ccccc1C(Cn1ccnc1)OCc1nc2ccccc2s1 (centres undefined) : not met
Clc1ccc(C(Cn2ccnc2)OCc2cc3ccccc3s2)c(Cl)c1 (centres undefined) : met
Clc1ccc(C(Cn2ccnc2)OCc2cccc3ccccc23)c(Cl)c1 (centres undefined) : met
Clc1ccc(C(Cn2ccnc2)OCc2ccsc2)c(Cl)c1 (centres undefined) : not met
Fc1ccc(C(Cn2ccnc2)OCc2nc3ccccc3s2)c(F)c1 (centres undefined) : met
Clc1ccc(C(Cn2ccnc2)OCc2nc3ccccc3s2)c(Cl)c1 (centres undefined) : met
Brc1cccc(C(Cn2ccnc2)OCc2nc3ccccc3s2)c1 (centres undefined) : not met
Fc1ccc(C(Cn2ccnc2)OCc2nc3ccccc3s2)cc1F (centres undefined) : met
Clc1ccc(C(Cn2ccnc2)OCc2nc3ccccc3o2)c(Cl)c1 (centres undefined) : not met
Fc1ccc(C(Cn2ccnc2)OCc2nc3ccccc3s2)cc1 (centres undefined) : met

Exercise: Is the reported IC50 for Fc1cc(C(Cn2ccnc2)OCc2nc3ccccc3s2)ccc1Cl (centres undefined) strictly below 6 µM?
Solution: not met

Exercise: Is the reported IC50 for Clc1ccc(C(Cn2ccnc2)OCc2csc3c(Cl)cccc23)c(Cl)c1 (centres undefined) [SERTACONAZOLE] strictly below 6 µM?
Solution: not met

Exercise: Is the reported IC50 for Clc1ccc(C(Cn2ccnc2)OCc2cccnc2)c(Cl)c1 (centres undefined) strictly below 6 µM?
Solution: not met

---

List of inhibition values.
biological target: Acetylcholinesterase (Electrophorus electricus) (UniProt O42275); test: Inhibition of electric eel […] iodide as substrate at 50 uM preincubated for 5 mins followed by substrate addition and measured after 2 mins by Ellman's method relative to control; settings: time 7.0 min
API: value field is a number in %; no unit string.

Record excerpt, results attached:
Clc1ccccc1C(Cn1ccnc1)OCc1nc2ccccc2s1 (centres undefined) : 47.4
Brc1ccc(C(Cn2ccnc2)OCc2nc3ccccc3s2)cc1 (centres undefined) : 21
Brc1cccc(C(Cn2ccnc2)OCc2nc3ccccc3s2)c1 (centres undefined) : 25.5

Attention now shifts to the item below.
inhibition on Acetylcholinesterase (Electrophorus electricus) (UniProt O42275) for Fc1cc(C(Cn2ccnc2)OCc2nc3ccccc3s2)ccc1Cl (centres undefined) is 22.1

---

test: Selectivity index, ratio of IC50 for inhibition of electric eel […] iodide as substrate to IC50 for inhibition of equine serum BuChE using butyrylthiocholine iodide as substrate
ENDPOINT NAME: Ratio IC50
No unit in the answer, please; the number alone is enough.

Clc1ccc(C(Cn2ccnc2)OCc2cccnc2)c(Cl)c1 (stereo unspecified) : 0.3
Clc1ccc(COC(Cn2ccnc2)c2ccc(Cl)cc2Cl)c(Cl)c1 (stereo unspecified) : 0.6
Clc1ccc(C(Cn2ccnc2)OCc2nc3ccccc3o2)c(Cl)c1 (stereo unspecified) : 2.5

Query Clc1ccc(C(Cn2ccnc2)OCc2cc3ccccc3s2)c(Cl)c1 (stereo unspecified) yields Ratio IC50 of 11

Query Clc1ccc(C(Cn2ccnc2)OCc2cccc3ccccc23)c(Cl)c1 (stereo unspecified) yields Ratio IC50 of 22.6

---

target: Cholinesterase (Equus caballus); assay: Inhibition of equine serum BuChE using butyrylthiocholine iodide as substrate preincubated for 5 mins followed by substrate addition and measured after 2 mins by Ellman's method
ENDPOINT NAME: pIC50
On this scale, pIC50 is minus log10 of a concentration expressed in M (mol/L).

Record excerpt, results attached:
Clc1ccc(C(Cn2ccnc2)OCc2nc3ccccc3s2)cc1 (stereo unspecified) : 5.10
Brc1ccc(C(Cn2ccnc2)OCc2nc3ccccc3s2)cc1 (stereo unspecified) : 5.00
Clc1ccc(C(Cn2ccnc2)OCc2nc3ccccc3s2)cc1Cl (stereo unspecified) : 6.00
Clc1ccc(COC(Cn2ccnc2)c2ccc(Cl)cc2Cl)c(Cl)c1 (stereo unspecified) : 5.37
Clc1cccc(C(Cn2ccnc2)OCc2nc3ccccc3s2)c1 (stereo unspecified) : 5.22

pIC50 on Cholinesterase (Equus caballus) for Clc1ccc(C(Cn2ccnc2)OCc2ccc3ccccc3c2)c(Cl)c1 (stereo unspecified) is 7.05
